target: T1, recombinant E1/E2 heterodimer protein (genotype 1a) (hepatitis C virus genotype 1a, UniProt P26664 192-383; P26664 384-746, limits assumed); assay: ELISA, E1/E2 heterodimer coated; crude periplasmic Fab
T1 construct: also called E1/E2 in complex; recombinant E1/E2 antigen
T1 sequence (P26664 192-383 limits assumed, chain 1 of 2): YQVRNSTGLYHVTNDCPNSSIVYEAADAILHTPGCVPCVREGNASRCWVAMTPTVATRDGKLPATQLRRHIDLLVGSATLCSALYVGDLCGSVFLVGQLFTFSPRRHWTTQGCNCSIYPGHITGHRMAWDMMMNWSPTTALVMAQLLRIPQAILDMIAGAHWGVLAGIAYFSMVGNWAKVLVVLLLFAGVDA
T1 sequence (P26664 384-746 limits assumed, chain 2 of 2): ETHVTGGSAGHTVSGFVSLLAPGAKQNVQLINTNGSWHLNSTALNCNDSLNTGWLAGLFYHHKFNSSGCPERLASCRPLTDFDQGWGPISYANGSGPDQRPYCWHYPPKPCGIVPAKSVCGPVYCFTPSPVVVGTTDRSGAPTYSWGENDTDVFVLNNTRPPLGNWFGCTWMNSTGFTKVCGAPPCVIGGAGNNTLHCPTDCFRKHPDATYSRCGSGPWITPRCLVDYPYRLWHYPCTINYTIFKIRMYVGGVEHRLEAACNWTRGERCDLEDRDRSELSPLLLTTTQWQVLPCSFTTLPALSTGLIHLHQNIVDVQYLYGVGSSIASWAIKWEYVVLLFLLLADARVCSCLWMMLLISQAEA
Some binders, each annotated with its measured OD405 nm.
API: value field is a number in OD405 nm; no unit string.

INSERT INTO results (binder, measurement_name, quantitative_result) VALUES
  ('Fab clone 1:9 (Fab, V domains shown, Human Fab (gamma1 Fd + kappa), crude periplasmic preparation, approx. 0.05 ug Fab/ml) VH: EVQLLESGPGLVKPSETLSLTCTVSGNSISSGYYWVWFRQSPGKGLEWIASIYHSGSTYYNPSLRSRVSISVDTSKKQFSLKLSSVTAADTAVYYCARDSAKTTRYFVHWGQGTLVTVSS VL: AELTQSPGTLSLSPGERATLSCRASQSVSSSYLAWYQQKAGQAPRLLIYGASRRATGIPVRFSGSGSGAEFTLTISSLQSEDSAVYYCQHYHNWPAMYTFGQGTKLEIK', 'OD405 nm', 0.67),
  ('Fab clone 1:8 (Fab, V domains shown, Human Fab (gamma1 Fd + kappa), crude periplasmic preparation, approx. 0.01 ug Fab/ml) VH: EVQLLESGGGLVEPGRSLRLSCAASGFNFGDYAIHWVRQGPGKGLEWVAGISWNSGSIGYADSVKGRFIISRDNAKKTLFLQMNTLRTEDTALYYCVKETGAQGVAGSGAYYFHNWGQGTLVTVSS VL: AELTQSPSSLSASIGDRVTITCRASQGISNYVAWYQQRPGKVPKLLIFGASALHSGVPSRFSGSGSGTDFTLTITSLQPEDVATYYCQKYRSAPLTFGPGTRVDLK', 'OD405 nm', 0.53);

Could you now look at the following binder, please?
Prompt: Entry Fab clone 2b-7 (Fab, V domains shown, Human Fab (gamma1 Fd + kappa), crude periplasmic preparation, approx. 0.54 ug Fab/ml) VH: VQLLEQSGAEVKKPGESLKISCRASGYSFSLFWVAWVRQMPGQGLEWMAIIYPGDSDTTYSPSFEGQVNVSVDKPISTAYLQWSSLKASDTAMYYCARRRSSDRRDAFDIWGPGTMVTVSS VL: AELTQSPAFMSATPGDKVNISCKASQDIDDDMNWYQQKPGEAAIFIIQEATTLVPGIPPRFSGSGYGTDFTLTINNIESEDAAYYFCLQHDNFPLTFGQGTKVEIK : reported OD405 nm = ?
Completion: 0.32

Hey, just so you know, these numbers are from patent US20040208887A1.
